Values compiled from patent US20240002497A1.

# key: entry, value: pEC50
# tgt: T1, huNav1.7α + β1 (human)
# T1 construct: HEK293 cells; also called huNav1.7-beta1; huNav1.7-β1
# method summary: binding FACS, HEK
Hey, just a heads up that pEC50 is the negative log base 10 of the concentration in molar.

{"columns": ["binder", "pEC50"],
 "data": [
  ["F010300659 (VHH, also called F0103275B05(S27P, I28V, S50Y, N53P, G55W, S56D, T57W, N93R, A94W)-FLAG3 + HIS6) VHH: EVQLVESGGGLVQPGGSLRLSCAASGPVFNINSMAWYRRAPGKQRELVAYSTPGWDWNYADSVKGRFTISRDNAKRVYLQMNSLTPEDTAVYYCRWLLQPSIYDISRTYWGQGTLVTVSS", 7.96],
  ["F0103275B05-FLAG3 + HIS6 (VHH, also called F0103275B05 (parental)-FLAG-HIS6) VHH: EVQLVESGGGLVQPGGSLRLSCAASGSIFNINSMAWYRRAPGKQRELVASSTNGGSTNYADSVKGRFTISRDNAKRVYLQMNSLTPEDTAVYYCNALLQPSIYDISRTYWGQGTLVTVSS", 7.89],
  ["66ASP (Fc fusion, also called F010300659-5GS-Fc; not shown: 5GS linker; Fc moiety) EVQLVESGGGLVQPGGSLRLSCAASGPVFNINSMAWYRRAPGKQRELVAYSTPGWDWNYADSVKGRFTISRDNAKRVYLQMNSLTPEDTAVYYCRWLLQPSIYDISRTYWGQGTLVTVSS", 7.38],
  ["69AVB (Fc fusion, also called F010301656-5GS-Fc; F10301656* (ISVD with human IgG1 Fc); not shown: 5GS linker; human IgG1 Fc) EVQLVESGGGLAQPGGSLRLSCAASGPVFNINRMAWYRRAPGKQRELVAYVTPTGDISYTDSVKGRFTISRDGSKRWSLQMNSLTPEDTAVYYCRALLQPDSYSNTRTYWGQGTLVTVSS", 8.05],
  ["65ASP (Fc fusion, also called F0103275B05-5GS-Fc; not shown: 5GS linker; Fc moiety) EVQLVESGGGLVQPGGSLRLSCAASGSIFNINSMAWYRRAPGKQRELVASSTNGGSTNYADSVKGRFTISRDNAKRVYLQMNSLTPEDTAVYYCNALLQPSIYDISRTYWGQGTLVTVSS", 7.35]
]}

Continue with the binder presented below.
Given F010301656 (VHH, also called F0103387G04(K33R, S50Y, S56D, N93R)-FLAG3-HIS6) VHH: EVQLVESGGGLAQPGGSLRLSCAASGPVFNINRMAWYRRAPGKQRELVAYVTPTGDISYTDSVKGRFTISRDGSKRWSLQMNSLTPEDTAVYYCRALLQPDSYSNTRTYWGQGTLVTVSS , state its recorded pEC50.
8.38
